- Test system: Human Pancreatic Adenocarcinoma Cells (HPAC)
- experiment description: HPAC cell viability, Calbiochem Rapid Cell Proliferation Kit, optical density at 450 nm
- Assay type: cell-based
- measurement context: peptide 0.03 μM, 48 hours, average of 5 replicate wells
Listed here are substances together with their documented Optical Densities in 96_Well Plate, Average.
Lab note: jot the number down without any unit.

- substance: "RSSCAGAALSPLGAC [Arg-15-Cys, ID NO:122]"
  measurement: 0.982
- substance: "PNEEAGAALSPLPEV [Pro-15-Val, ID NO:121]"
  measurement: 0.894
- substance: "AGAALSPL [Ala-8-Leu, ID NO:85]"
  measurement: 0.976
- substance: "ANP: Natriuretic peptide; Table III sequence SLRRSSCFGGRMDRIGAQSGLGCNSFRY, SEQ ID NO:126 [reference compound]"
  measurement: 0.935

Continue with the substance presented below.
For record RSSCFGGRIDRIGAC [C-ANP 4-23, ID NO:124, reference compound] the listed Optical Densities in 96_Well Plate, Average is 0.932

This collection of values is drawn from patent US9808512B2.
